Where these numbers come from: patent US10221163B2

ASSAYED TARGET: VIM-1 (Pseudomonas aeruginosa (strain ATCC 15692 / DSM 22644 / CIP 104116 / JCM 14847 / LMG 12228 / 1C / PRS 101 / PAO1))
ASSAY INFO: biochemical
REPORTED CONDITIONS: fluorescence assay, CCF2-FA substrate, 30 pM enzyme, 2 hours at 25° C.; read-out: VIM-1 IC50
REPORTED PROPERTY: pIC50
// pIC50 is dimensionless: -log10 of concentration (M)

NS(=O)(=O)c1c(S(=O)(=O)N[C@@H]2CCNC2)ccc(-c2cccnc2N2CCNCC2)c1-c1nn[nH]n1; 9.35
Nc1nc2c(-c3ccc(S(=O)(=O)NC4CCC5OC4CC5N)c(S(N)(=O)=O)c3-c3nnn[nH]3)cccc2s1.O=C(O)C(F)(F)F (stereo not drawn) [Example 95, 2,2,2-trifluoroacetate]; 9.76
NCCNS(=O)(=O)c1ccc(-c2cccc(NC[C@@H](N)CO)c2)c(-c2nn[nH]n2)c1S(N)(=O)=O; 9.36
NCCCNS(=O)(=O)c1ccc(-c2cccc3[nH]cnc23)c(-c2nn[nH]n2)c1S(N)(=O)=O; 9.87

Entry Nc1nc2c(-c3ccc(S(=O)(=O)NC[C@H](N)CO)c(S(N)(=O)=O)c3-c3nn[nH]n3)cccc2[nH]1 — recorded pIC50 = 9.76

Entry NCc1nc2c(-c3ccc(S(=O)(=O)N[C@@H]4CCNC4)c(S(N)(=O)=O)c3-c3nn[nH]n3)cccc2[nH]1 — recorded pIC50 = 9.91
